src = ChEMBL document CHEMBL5252515

Target under test: UniProtKB Q9NYK1
Sequence (Q9NYK1 whole entry): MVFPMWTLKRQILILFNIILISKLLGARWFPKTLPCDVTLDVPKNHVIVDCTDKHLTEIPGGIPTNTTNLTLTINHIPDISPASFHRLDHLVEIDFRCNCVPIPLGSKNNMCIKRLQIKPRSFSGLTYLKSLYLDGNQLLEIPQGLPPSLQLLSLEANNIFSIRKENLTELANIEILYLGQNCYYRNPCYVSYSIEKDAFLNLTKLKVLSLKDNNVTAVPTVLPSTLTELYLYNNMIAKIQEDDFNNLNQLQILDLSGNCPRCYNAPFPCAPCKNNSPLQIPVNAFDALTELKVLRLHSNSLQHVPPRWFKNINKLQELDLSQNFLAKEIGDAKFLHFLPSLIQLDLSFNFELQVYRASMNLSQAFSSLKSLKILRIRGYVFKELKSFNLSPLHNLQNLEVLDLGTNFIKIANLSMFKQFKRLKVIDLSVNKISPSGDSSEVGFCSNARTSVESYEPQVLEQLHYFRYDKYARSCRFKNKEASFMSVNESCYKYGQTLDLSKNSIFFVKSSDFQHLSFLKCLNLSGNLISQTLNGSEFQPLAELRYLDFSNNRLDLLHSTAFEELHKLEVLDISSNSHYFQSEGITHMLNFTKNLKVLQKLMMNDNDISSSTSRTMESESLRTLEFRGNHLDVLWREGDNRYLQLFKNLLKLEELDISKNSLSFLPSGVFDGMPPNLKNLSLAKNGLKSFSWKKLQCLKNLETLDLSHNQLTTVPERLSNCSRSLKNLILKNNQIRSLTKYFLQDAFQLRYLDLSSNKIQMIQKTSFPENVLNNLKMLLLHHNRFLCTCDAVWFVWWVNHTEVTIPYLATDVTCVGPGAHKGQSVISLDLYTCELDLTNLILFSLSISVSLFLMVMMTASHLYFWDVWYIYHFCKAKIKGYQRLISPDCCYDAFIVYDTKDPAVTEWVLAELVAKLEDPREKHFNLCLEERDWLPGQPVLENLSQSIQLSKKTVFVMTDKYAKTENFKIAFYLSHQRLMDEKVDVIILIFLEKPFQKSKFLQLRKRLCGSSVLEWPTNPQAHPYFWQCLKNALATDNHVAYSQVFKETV
Protocol text: Agonist activity at TLR7 in human whole blood assessed as induction of IFN-gamma production after 20 hrs by electrochemiluminescence assay
Assay type: tissue-based
Experimental endpoint: EC50 (µM)
Kindly answer with a numeric value in µM, unit omitted.

What measured EC50 goes with CCC[C@H](C)Oc1nc(N)c2[nH]c(=O)n(CCCCCN3CCCCC3)c2n1 ?
1.26

###

Protocol text: Toxicity in female rat assessed as NOAEL after 8 weeks
Experimental context: in vivo
Experimental endpoint: NOAEL at 1344 h (mg/kg)
Kindly answer with a numeric value in mg/kg, unit omitted.

What measured NOAEL at 1344 h goes with CCC[C@H](C)Oc1nc(N)c2[nH]c(=O)n(CCCCCN3CCCCC3)c2n1 ?
0.698
